All figures here come from patent EP4786492A1.

# systemUnderTest: monkey DLL3 on CHO-K1-cyno DLL3 cells (cynomolgus monkey)
# Sequence (chain, as listed by the source limits assumed): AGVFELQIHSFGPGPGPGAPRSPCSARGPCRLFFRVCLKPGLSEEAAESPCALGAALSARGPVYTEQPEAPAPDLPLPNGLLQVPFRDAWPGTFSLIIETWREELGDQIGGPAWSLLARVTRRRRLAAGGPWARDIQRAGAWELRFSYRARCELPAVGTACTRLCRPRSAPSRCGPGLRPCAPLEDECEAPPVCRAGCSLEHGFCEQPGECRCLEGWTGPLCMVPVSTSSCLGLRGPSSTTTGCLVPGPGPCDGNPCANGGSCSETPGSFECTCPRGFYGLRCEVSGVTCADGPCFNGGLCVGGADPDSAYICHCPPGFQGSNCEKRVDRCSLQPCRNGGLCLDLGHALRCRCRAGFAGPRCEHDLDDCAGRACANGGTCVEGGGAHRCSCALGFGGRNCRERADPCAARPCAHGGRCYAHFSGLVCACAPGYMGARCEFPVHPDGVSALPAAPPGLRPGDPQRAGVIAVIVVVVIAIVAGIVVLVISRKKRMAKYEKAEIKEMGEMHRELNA
# experimentalProtocol: FACS, CHO-K1-cyno DLL3 cells, 0.0064 nM antibody
endpoint: MFI (MFI)
# value in MFI; strip the unit string

Qu. I have this binder here, Hab009VL1aVH1-hFc (scFv, part only; not given: scFv linker and human IgG1 Fc, V domains shown, not shown: another chain or arm of the molecule; a dimerising Fc or GST; small tags and cut ends) VL: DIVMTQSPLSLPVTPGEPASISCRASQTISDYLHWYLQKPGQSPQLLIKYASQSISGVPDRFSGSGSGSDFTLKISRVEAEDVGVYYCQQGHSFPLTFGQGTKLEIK VH: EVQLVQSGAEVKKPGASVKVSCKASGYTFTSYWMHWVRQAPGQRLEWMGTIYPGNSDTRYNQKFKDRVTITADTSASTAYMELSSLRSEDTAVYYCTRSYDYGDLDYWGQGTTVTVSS , and I need its recorded MFI.
Ans. 178

Further cases:
Qu. Fill in: MFI of Hab014VL2VH1-hFc (scFv, part only; not given: scFv linker and human IgG1 Fc, V domains shown, not shown: another chain or arm of the molecule; a dimerising Fc or GST; small tags and cut ends) VL: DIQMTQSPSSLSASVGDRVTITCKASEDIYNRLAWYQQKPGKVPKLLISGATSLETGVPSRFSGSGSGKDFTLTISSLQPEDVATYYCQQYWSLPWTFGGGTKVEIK VH: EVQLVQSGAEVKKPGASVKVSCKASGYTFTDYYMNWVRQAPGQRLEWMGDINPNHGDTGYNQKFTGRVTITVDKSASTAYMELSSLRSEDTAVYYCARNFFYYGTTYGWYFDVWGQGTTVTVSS is ___
Ans. 287
